subject_of_test: T1, IIB-Fc:ALK4-Fc heterodimer (human ActRIIB ECD-Fc paired with human ALK4 ECD-Fc) (human, UniProt Q13705-1 19-134; P36896-1 24-126)
T1 construct: activin receptor type IIB (ActRIIB) extracellular domain, human, aa 19-134 of NP_001097.2; copies: 1 + 1
procedure_summary: SPR; Biacore 8K, 37 °C; Fc-fusion receptor dimers captured by anti-human Fc antibody on a CM5 chip (100-150 RU); ligands injected in two-fold dilution series (300 s association, 600 s dissociation); HBS-EP+ supplemented with 350 mM NaCl and 0.5 mg/mL BSA; 1:1 Langmuir model with a term for mass transport
test_settings: both partners purified
Can you tell me koff for the items I'm about to list?
Write the quantity with the unit trailing the number.

1. BMP10 (ligand, human, UniProt O95393 317-424, looked up, source: bought: R&D Systems) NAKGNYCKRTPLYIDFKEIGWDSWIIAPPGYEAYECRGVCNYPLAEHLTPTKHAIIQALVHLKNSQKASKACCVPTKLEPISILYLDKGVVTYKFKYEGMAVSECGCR = 0.0028 s⁻¹

Notebook: BMP6 (ligand, human, UniProt P22004 375-513, looked up, source: bought: R&D Systems) SASSRRRQQSRNRSTQSQDVARVSSASDYNSSELKTACRKHELYVSFQDLGWQDWIIAPKGYAANYCDGECSFPLNAHMNATNHAIVQTLVHLMNPEYVPKPCCAPTKLNAISVLYFDDNSNVILKKYRNMVVRACGCH , koff read as 0.00573 s⁻¹

Entry source: paper PMC8443706
